# SUBJECT_OF_TEST: PP2A (Homo sapiens, UniProt P67775)
# Sequence (P67775 whole entry): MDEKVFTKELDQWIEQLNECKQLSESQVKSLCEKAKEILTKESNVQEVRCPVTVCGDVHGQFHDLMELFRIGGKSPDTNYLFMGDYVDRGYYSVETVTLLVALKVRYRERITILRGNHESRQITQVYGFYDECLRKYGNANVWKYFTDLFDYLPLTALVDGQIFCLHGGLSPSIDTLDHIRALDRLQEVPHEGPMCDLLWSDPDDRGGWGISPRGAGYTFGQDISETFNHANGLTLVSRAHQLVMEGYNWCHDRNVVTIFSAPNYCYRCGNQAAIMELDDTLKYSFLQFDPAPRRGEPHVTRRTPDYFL
# Sequence (P30153 2-589 partner limits assumed): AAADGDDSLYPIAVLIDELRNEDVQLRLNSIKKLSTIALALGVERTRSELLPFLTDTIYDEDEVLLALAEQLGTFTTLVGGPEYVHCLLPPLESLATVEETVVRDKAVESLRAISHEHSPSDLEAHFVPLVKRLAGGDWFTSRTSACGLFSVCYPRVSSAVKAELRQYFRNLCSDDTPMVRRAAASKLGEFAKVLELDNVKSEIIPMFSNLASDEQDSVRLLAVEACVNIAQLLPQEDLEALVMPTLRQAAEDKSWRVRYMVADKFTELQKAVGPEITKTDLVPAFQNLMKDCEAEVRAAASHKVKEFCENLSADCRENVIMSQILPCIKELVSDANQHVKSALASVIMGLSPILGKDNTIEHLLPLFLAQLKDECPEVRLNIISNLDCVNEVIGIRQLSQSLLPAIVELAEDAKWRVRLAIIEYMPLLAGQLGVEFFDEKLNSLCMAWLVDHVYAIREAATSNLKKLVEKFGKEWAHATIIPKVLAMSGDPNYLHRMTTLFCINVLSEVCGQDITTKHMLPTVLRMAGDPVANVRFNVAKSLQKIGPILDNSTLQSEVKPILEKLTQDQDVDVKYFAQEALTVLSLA
REPORTED_METRIC: IC50
For clarity, give the value followed by its unit.

Answer with the recorded IC50 of [Cd+2] only. 130 µM
